The measured values listed here are drawn from patent US20110165066A1.

Parameter Kd: see the listing below.
biological target: T1, human IL-13 variant (R130Q) (human, UniProt P35225 35-146); assay: SPR (Biacore), mAb captured, IL-13 as analyte
T1 construct: called R110Q in the assay descriptions (mature numbering); also called h IL-13v; hIL-13v
T1 sequence (P35225 35-146 limits assumed, stated change not applied): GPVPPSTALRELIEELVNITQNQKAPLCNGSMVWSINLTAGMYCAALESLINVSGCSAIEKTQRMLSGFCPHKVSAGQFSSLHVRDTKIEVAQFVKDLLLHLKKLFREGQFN
Return type: number; implicit unit nM.

Field: example entries. Status: answers known.
| binder | unit label | Kd |
| --- | --- | --- |
| 33C3 (antibody, V domains shown) VH: QVTLKESGPGILQPSQTLSLTCSFSGFSLSTSDLGVGWIRQPSGKGLEWLAHIWWDDVKRYNPALKSRLTISKDTSSSQVFLMIASVDTADTATYYCARIGSSGYIYYEMDYWGQGTSVTVSS VL: DIQMTQTTSSLSASLGDRVTITCRASQDIRNYLNWYQQKPDGTVKLLIYYTSRLHSGVPSRFSGSGSGTDYSLTISNLDQEDIATYFCQQGNTLPLTFGGGTRLEIKR | nM | 0.124 |
| 29G5 (antibody, V domains shown) VH: QVTLKESGPGILQPSQTLSLTCSFSGFSLSTSDMGVDWIRQPSGKDLEWLAHIWWDDVKRYNPALKSRLTISKDTSSSQVFLMLASVDTADTATYYCARIVSSGYIYYALDYWGQGTSVTVSS VL: DIQMTQTASSLSASLGDRVTISCRASQDIRNYLNWYQRKPDGTVKLLIYYTSRLHSGVPSRFSGSGSGTDYSLTISNLEQEDIATYFCQQGNTLPLTFGGGTKLEIKR | nM | 0.329 |

Let us move to another entry and its Kd.
Note Kd for the binder shown: 21D9 (antibody, V domains shown) VH: QVQLQQSGDDLVKPGASVKLSCKASGYTFTSYWINWIKQRPGQGLEWIGHIAPGSGETYDNEMFKDKAKLTVDTSSNTAYIHLSSLSSEDSAVYFCARGSFTFFYAMDYWGQGTSVTVSS VL: DVLMTQTPLSLPVSLGDQASISCRSSQNIVHSNGKTYLEWYLQRPGQSPKLLIYKVSNRFSGVPDRFSGSGSGTDFTLKISRVEAEDLGVYYCFQGSHVPYTFGGGTKLEIKR
0.0744
